experiment: Clearance in ICR mouse at 10 mg/kg, iv by LC/MS/MS analysis; type: ADME, organism-based; design: dose 10 mg/kg, route intravenous; settings: in vivo
Result Type: clearance (mL/min/kg)
Answers are plain numbers, in mL/min/kg.

Would you mind telling me what clearance value was observed for `Cn1nnc(-c2ccc(-c3ccc(N4C[C@H](CO)OC4=O)cc3F)cn2)n1` ? 1.61

---

assay: Chemical stability of compound in distilled water assessed as compound remaining at 100 ug/ml after 8 hrs; assay type: physicochemical
Consider the following compounds; for each one, report its Stability.
Answers are plain numbers, in %.

INSERT INTO results (smiles, result_type, unit_annotation, reported) VALUES
  ('Cn1nnc(-c2ccc(-c3ccc(N4C[C@H](COC(=O)CN)OC4=O)cc3F)cn2)n1.O=C(O)C(F)(F)F', 'Stability', '%', 79.5),
  ('Cn1nnc(-c2ccc(-c3ccc(N4C[C@H](COC(=O)[C@@H]5CCCN5)OC4=O)cc3F)cn2)n1.O=C(O)C(F)(F)F', 'Stability', '%', 76.4),
  ('CC(C)[C@H](N)C(=O)OC[C@H]1CN(c2ccc(-c3ccc(-c4nnn(C)n4)nc3)c(F)c2)C(=O)O1.O=C(O)C(F)(F)F', 'Stability', '%', 99.4),
  ('CC(C)[C@H](N)C(=O)OC[C@H]1CN(c2ccc(-c3ccc(-c4nnn(C)n4)nc3)c(F)c2)C(=O)O1.Cl', 'Stability', '%', 99.9),
  ('Cn1nnc(-c2ccc(-c3ccc(N4C[C@H](COC(=O)CCN)OC4=O)cc3F)cn2)n1.O=C(O)C(F)(F)F', 'Stability', '%', 96.9);

Parameters: items (list). Returns: Stability for each item.
1. Cl.Cn1nnc(-c2ccc(-c3ccc(N4C[C@H](COC(=O)CCN)OC4=O)cc3F)cn2)n1
2. Cl.Cn1nnc(-c2ccc(-c3ccc(N4C[C@H](COC(=O)CN)OC4=O)cc3F)cn2)n1
3. C[C@H](N)C(=O)OC[C@H]1CN(c2ccc(-c3ccc(-c4nnn(C)n4)nc3)c(F)c2)C(=O)O1.O=C(O)C(F)(F)F
4. C[C@H](N)C(=O)OC[C@H]1CN(c2ccc(-c3ccc(-c4nnn(C)n4)nc3)c(F)c2)C(=O)O1.Cl

[99.9, 85.7, 90.7, 92.3]

Just for reference, ChEMBL document CHEMBL1759832 is where these values come from.
